Parameter: IGF-1R/IR comparison. Scope: all listed entries.
system tested: T1, Soluble IGF-1R (sIGF-1R), R&D Systems Cat. # 391-GR/CF (UniProt P08069 31-935, limits assumed)
T1 construct: extracellular domain
assay comment: phage ELISA

{"columns": ["binder", "IGF-1R/IR comparison"],
 "data": [
  ["FFYDCLAALLQGVARYHDLCAVEIT [20C-4-C7-IGFR]", 21.8],
  ["LQPCSGFYECIERLIGVKLSG [20E2Bβ-4-G7-IR]", 15.8],
  ["CCLLCRFQQNFYDWFVCQGISRLRPL [H2CA-2-B4-IGFR]", 3.6],
  ["CCTTEMVVMDARDDPFYHKLSELVTGG [B6Hα-1-B5-IR]", 20.5],
  ["GCAVVEEAERSRGDPFYHKLSELIQGC [B6Hα-3-E7-IR]", 4.3],
  ["SSYGCDGFYLMLFSLGLVASQELEC [20C-3-A1-IGFR]", 13.7],
  ["NSRDGGFYLQLERLLGFPVTG [20E2B-3-D4-IGFR]", 9.6],
  ["LRRQAPVEENFYDWFVRQVSGDRVGG [H2CA-3-D7-IGFR]", 3.7],
  ["RCQGTGFYTCIQELIGFGDPD [20E2B-4-H9-IGFR]", 5.6],
  ["RGIVAMVEATEVGSDHDPFYHKLSELVQGS [B6Hα-2-C7-IR]", 6.7],
  ["FYDAIDQLVRGSARAGGTRD [R20α-3-20E2-IR]", 12.9],
  ["NYRRQVFNGNFYDWFDRQVFSLVTPG [H2CA-3-D8-IGFR]", 4],
  ["RFDPFYSYFVNLLGASA [NNRPγ-4-A7-IR]", 4.9],
  ["PVGVQGFYEGLSRLVLGRGGW [20E2B-4-F8-IGFR]", 9.7],
  ["TSEVQRRSQDNFYDWFVAQVA [A6S-3-E2-IR]", 2.5],
  ["IWATGDFYRLLSQLVMGRVGT [20E2B-2-B8-IGFR]", 7.2],
  ["MMVVDGFYDALHQLVVAQSLG [20E2A-3-D10-IGFR]", 3.9],
  ["RGCNDDGGKGWSDDPFYHKLSELICGG [B6Hα-1-A2-IR]", 14.6],
  ["VERSASSQDGNFYDWFVVQIR [A6S-2-D1-IR]", 2.6],
  ["PGTDLGFYQALRCVVIQGACD [20E2B-2-B2-IGFR]", 8.1],
  ["AVRATRFDEAFYDWFVRQISDGQGNK [H2CA-4-F6-IGFR]", 6.4],
  ["QPAPDGFYSALMKLIGRGGVS [20E2B-3-C8-IGFR]", 8.9],
  ["SRAKVEAEMPDSGDPFYHKLSELLASG [B6Hα-1-A3-IR]", 3.3],
  ["GFREGSFYDWFQAQVT [E4Dα-2-D11-IR]", 3.4],
  ["EAASLGSQDRNFYDWFVRQVV [A6S-2-D11-IR]", 2.8],
  ["TLRSPTFYDWLEMVLTHGQGG [20E2B-1-A8-IGFR]", 5],
  ["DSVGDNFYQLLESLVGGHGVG [20E2B-3-D6-IGFR]", 6.9],
  ["GCVVEWQKWHGASDPFYHKLSELGGCS [B6Hα-3-F10-IR]", 4.6]
]}
